All figures here come from ChEMBL document CHEMBL3425485.

assay.method.text: Volume of distribution at steady state in dog
condition.description: in vivo
value.type: Vd

[
  {
    "compound": "NC(=O)c1cccc2cn(-c3ccc([C@@H]4CCCNC4)cc3)nc12 [NIRAPARIB]",
    "observed": "12.3 L/kg"
  }
]

====

assay.method.text: Plasma concentration in CD-1 mouse at 50 mg/kg, po after 24 hrs

[
  {
    "molecular.string": "NC(=O)c1cccc2cn(-c3ccc([C@@H]4CCCNC4)cc3)nc12",
    "concentration at 24 h [nM]": 100
  }
]

====

Tested on: Plasma
assay.method.text: Plasma trough concentration in human at 300 mg/day
condition.description: read-out: Cmin

[
  {
    "molecular.string": "NC(=O)c1cccc2cn(-c3ccc([C@@H]4CCCNC4)cc3)nc12",
    "concentration": "> 2000 nM"
  }
]

====

assay.method.text: in vitro
condition.description: human, UWB1.289 cells expressing BRCA1
Description: Cytotoxicity against human UWB1.289 cells expressing BRCA1 assessed as inhibition of cell proliferation after 5 to 7 days by CellTiter-Blue assay

[
  {
    "compound": "NC(=O)c1cccc2cn(-c3ccc([C@@H]4CCCNC4)cc3)nc12 [NIRAPARIB]",
    "CC50, nM": 975
  }
]

====

assay.method.text: Drug metabolism in iv dosed bile cannulated rat assessed as parent compound recovery
value.type: dose excreted (%)

[
  {
    "compound": "NC(=O)c1cccc2cn(-c3ccc([C@@H]4CCCNC4)cc3)nc12 [NIRAPARIB]",
    "scale.unit": "%",
    "observed": 45
  }
]

====

assay.method.text: Plasma clearance in rat
Type: ADME

[
  {
    "molecular.string": "NC(=O)c1cccc2cn(-c3ccccc3)nc12",
    "clearance, mL/min/kg": 30
  }
]

====

assay.method.text: Terminal half life in dog
condition.description: in vivo
value.type: half-life

[
  {
    "molecular.string": "NC(=O)c1cccc2cn(-c3ccc([C@@H]4CCCNC4)cc3)nc12",
    "observed": "342 min"
  }
]

====

assay.method.text: in vivo
condition.description: dog, plasma
value.type: clearance (mL/min/kg)

[
  {
    "molecular.string": "NC(=O)c1cccc2cn(-c3ccc([C@@H]4CCCNC4)cc3)nc12",
    "scale.unit": "mL/min/kg",
    "observed": 31
  }
]

====

assay.method.text: Intrinsic clearance in human liver microsomes measured per mg of protein
value.type: microsomal CLint (µL/min/mg)

[
  {
    "molecule": "NC(=O)c1cccc2cn(-c3ccc([C@@H]4CCCNC4)cc3)nc12 [NIRAPARIB]",
    "observed": 3
  },
  {
    "molecule": "NC(=O)c1cccc2cn(-c3ccc([C@H]4CCCNC4)cc3)nc12",
    "observed": 4
  }
]

====

subject.of.test: Cytochrome P450 1A1 (Homo sapiens, UniProt P04798)
Sequence (P04798 whole entry): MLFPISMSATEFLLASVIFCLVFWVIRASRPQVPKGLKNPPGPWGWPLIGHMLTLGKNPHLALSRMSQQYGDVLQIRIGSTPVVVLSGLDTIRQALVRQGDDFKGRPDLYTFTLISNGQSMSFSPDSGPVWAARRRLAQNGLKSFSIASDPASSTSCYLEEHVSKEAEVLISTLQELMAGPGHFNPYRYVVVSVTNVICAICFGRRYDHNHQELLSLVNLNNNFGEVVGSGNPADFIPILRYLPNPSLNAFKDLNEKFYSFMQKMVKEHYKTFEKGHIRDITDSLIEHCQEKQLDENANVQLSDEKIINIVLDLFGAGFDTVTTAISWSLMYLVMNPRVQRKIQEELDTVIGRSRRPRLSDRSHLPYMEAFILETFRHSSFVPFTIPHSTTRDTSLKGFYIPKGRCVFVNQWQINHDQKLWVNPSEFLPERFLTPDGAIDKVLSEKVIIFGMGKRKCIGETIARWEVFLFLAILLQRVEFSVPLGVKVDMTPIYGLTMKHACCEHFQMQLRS
assay.method.text: Drug metabolism assessed as recombinant CYP1A1 (unknown origin)-mediated compound intrinsic clearance measured per mg of protein
Format: ADME
condition.description: recombinant enzyme
value.type: log10 of CL (log10 of the value in µL/min)

[
  {
    "compound": "NC(=O)c1cccc2cn(-c3ccc4c(c3)CCNC4)nc12",
    "log10 of CL": -0.15
  },
  {
    "compound": "CNCc1ccc(-n2cc3cccc(C(N)=O)c3n2)cc1",
    "log10 of CL": 0.78
  },
  {
    "compound": "NC(=O)c1cccc2cn(-c3ccc([C@@H]4CCCNC4)cc3)nc12",
    "log10 of CL": 1.20
  },
  {
    "compound": "NC(=O)c1cccc2cn(-c3ccc(C4CCCNC4)cc3)nc12 (stereo not drawn)",
    "log10 of CL": 1.04
  },
  {
    "compound": "NC(=O)c1cccc2cn(-c3ccc(C4CCCN4)cc3)nc12 (stereo not drawn)",
    "log10 of CL": 1.34
  },
  {
    "compound": "CN(C)Cc1ccc(-n2cc3cccc(C(N)=O)c3n2)cc1",
    "log10 of CL": 0.94
  },
  {
    "compound": "NC(=O)c1cccc2cn(-c3ccc([C@H]4CCCNC4)cc3)nc12",
    "log10 of CL": 0.85
  },
  {
    "compound": "CNC(C)(C)c1ccc(-n2cc3cccc(C(N)=O)c3n2)cc1",
    "log10 of CL": -0.40
  }
]
